Origin of values: patent US20260234276A1

- EXPERIMENTAL_SYSTEM: human CCR8 (human, UniProt P51685 1-355)
- TEST_SUMMARY: cell-based or functional assay
RESULT_TYPE: hCCL1 (100 nM) residual response, Protocol #3, mAb 5 µg/mL (%)
Report only the number, with the unit % understood.

Field hCCL1 (100 nM) residual response, Protocol #3, mAb 5 µg/mL (entry 3-46 (antibody, V domains shown) VH: EVQLVETGGGLVQPKGSLKLSCAASGFTFNTNAMNWVRQAPGKGLEWVARIRSKSNYYATYYADSVKDRFTISRDDSQSMLYLQMNNLKTEDTAMYYCVRGREMGNYYSMDYWGQGTSVTVSS VL: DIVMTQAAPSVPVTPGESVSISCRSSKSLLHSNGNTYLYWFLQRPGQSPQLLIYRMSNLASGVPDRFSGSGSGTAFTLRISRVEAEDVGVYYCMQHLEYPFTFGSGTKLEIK ) reads 38

Field hCCL1 (100 nM) residual response, Protocol #3, mAb 5 µg/mL (entry 3-21 (antibody, V domains shown) VH: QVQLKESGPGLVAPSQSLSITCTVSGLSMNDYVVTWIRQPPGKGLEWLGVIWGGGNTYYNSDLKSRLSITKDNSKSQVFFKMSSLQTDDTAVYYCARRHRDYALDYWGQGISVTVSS VL: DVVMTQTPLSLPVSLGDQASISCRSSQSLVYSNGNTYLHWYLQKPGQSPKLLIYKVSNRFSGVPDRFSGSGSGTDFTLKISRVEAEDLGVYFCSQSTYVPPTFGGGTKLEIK ) reads 75
